All values here come from patent US20250163162A1.

- Assayed System: T1, cIL2Rg-Fc (lot#P210115SV5) (cynomolgus, UniProt A0A2K5VGJ6 23-262)
- T1 construct: Named only by lot number; also called cynomolgus IL2Rg-Fc; not shown: Fc of the fusion protein
- T1 sequence: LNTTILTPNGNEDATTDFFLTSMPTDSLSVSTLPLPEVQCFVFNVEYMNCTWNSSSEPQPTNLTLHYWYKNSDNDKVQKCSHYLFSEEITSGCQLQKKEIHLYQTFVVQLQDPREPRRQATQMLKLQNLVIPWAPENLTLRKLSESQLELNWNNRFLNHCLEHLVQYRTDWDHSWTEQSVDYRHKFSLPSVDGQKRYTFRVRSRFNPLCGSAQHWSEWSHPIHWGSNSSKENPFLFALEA
- Assay Text: SPR (Biacore T200), Fc-fused ligand captured on chip, dual VHH as analyte, 1:1 Langmuir fit
Class (by kon) -- low interval = under 200000 M⁻¹ s⁻¹, middle interval = from 200000 M⁻¹ s⁻¹ up to 700000 M⁻¹ s⁻¹, high interval = 700000 M⁻¹ s⁻¹ and over

- DR438(DR235-DR234) (bispecific antibody, Anti-hIL10Ra/hIL2Rg dual VHH with ASH6 handle; also called D12) QVQLQESGGGSVQAGGSLRLSCAASRYLYSIDYMAWFRQSPGKEREPVAVIYTASGATFYPDSVKGRFTISQDNAKMTVYLQMNSLKSEDTAMYYCAAVRKTDSYLFDAQSFTYWGQGTQVTVSSGGGSQVQLQESGGGSVQAGGSLRLSCVASGYTFSSYCMGWFRQAPGKEREGVAALGGGSTYYADSVKGRFTISQDNAKNTLYLQMNSLKPEDTAMYYCAAAWVACLEFGGSWYDLARYKHWGQGTQVTVSSASHHHHHH: middle interval
- DR441(DR236-DR231) (bispecific antibody, Anti-hIL10Ra/hIL2Rg dual VHH with ASH6 handle; also called F1) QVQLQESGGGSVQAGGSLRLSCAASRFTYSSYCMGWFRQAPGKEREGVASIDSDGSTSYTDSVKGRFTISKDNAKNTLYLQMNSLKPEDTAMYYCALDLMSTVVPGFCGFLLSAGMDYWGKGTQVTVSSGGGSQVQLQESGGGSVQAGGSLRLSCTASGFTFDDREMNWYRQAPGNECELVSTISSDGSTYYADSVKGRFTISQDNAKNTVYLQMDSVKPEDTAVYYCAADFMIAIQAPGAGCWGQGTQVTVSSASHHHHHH: middle interval
- DR437(DR235-DR233) (bispecific antibody, Anti-hIL10Ra/hIL2Rg dual VHH with ASH6 handle; also called D6) QVQLQESGGGSVQAGGSLRLSCAASRYLYSIDYMAWFRQSPGKEREPVAVIYTASGATFYPDSVKGRFTISQDNAKMTVYLQMNSLKSEDTAMYYCAAVRKTDSYLFDAQSFTYWGQGTQVTVSSGGGSQVQLQESGGGSVQAGGSLRLSCTASGFTFDDSDMGWYRQAPGNECELVSTISSDGSTYYADSVKGRFTISQDNAKNTVYLQMNSLKPEDTAVYYCAAEPRGYYSNYGGRRECNYWGQGTQVTVSSASHHHHHH: middle interval

In: Class? Entry: DR395(DR229-DR239) (bispecific antibody, Anti-hIL10Ra/hIL2Rg dual VHH with ASH6 handle; also called A2) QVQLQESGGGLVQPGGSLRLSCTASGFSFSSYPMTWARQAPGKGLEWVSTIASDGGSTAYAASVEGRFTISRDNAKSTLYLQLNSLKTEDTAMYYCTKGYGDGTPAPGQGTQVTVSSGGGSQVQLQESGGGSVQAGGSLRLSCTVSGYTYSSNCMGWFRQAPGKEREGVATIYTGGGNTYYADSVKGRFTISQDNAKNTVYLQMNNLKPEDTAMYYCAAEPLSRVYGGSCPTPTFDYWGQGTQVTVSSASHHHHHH
Out: high interval

In: Try this binder too: DR449(DR237-DR233) (bispecific antibody, Anti-hIL10Ra/hIL2Rg dual VHH with ASH6 handle; also called F3) QVQLQESGGGSVQAGGSLRLSCAASGYTYSMYCMGWFRQAPGKEREGVAQINSDGSTSYADSVKGRFTISKDNAKNTLYLQMNSLKPEDTAMYYCAADSRVYGGSWYERLCGPYTYEYNYWGQGTQVTVSSGGGSQVQLQESGGGSVQAGGSLRLSCTASGFTFDDSDMGWYRQAPGNECELVSTISSDGSTYYADSVKGRFTISQDNAKNTVYLQMNSLKPEDTAVYYCAAEPRGYYSNYGGRRECNYWGQGTQVTVSSASHHHHHH
Out: middle interval

In: Queued: DR444(DR236-DR234) (bispecific antibody, Anti-hIL10Ra/hIL2Rg dual VHH with ASH6 handle; also called E8) QVQLQESGGGSVQAGGSLRLSCAASRFTYSSYCMGWFRQAPGKEREGVASIDSDGSTSYTDSVKGRFTISKDNAKNTLYLQMNSLKPEDTAMYYCALDLMSTVVPGFCGFLLSAGMDYWGKGTQVTVSSGGGSQVQLQESGGGSVQAGGSLRLSCVASGYTFSSYCMGWFRQAPGKEREGVAALGGGSTYYADSVKGRFTISQDNAKNTLYLQMNSLKPEDTAMYYCAAAWVACLEFGGSWYDLARYKHWGQGTQVTVSSASHHHHHH
Out: low interval

In: Can you check DR466(DR240-DR232) (bispecific antibody, Anti-hIL10Ra/hIL2Rg dual VHH with ASH6 handle; also called H7) QVQLQESGGGSVQAGGSLRLSCGASGYTYSSYCMGWFRQVPGKEREGVAVIDSDGSTSYADSVKGRFTISKDNGKNTLYLQMNSLKPEDTAMYYCAADLGHYRPPCGVLYLGMDYWGKGTQVTVSSGGGSQVQLQESGGGSVQAGGSLRLSCVASGYTSCMGWFRQAPGKEREAVATIYTRGRSIYYADSVKGRFTISQDNAKNTLYLQMNSLKPEDIAMYSCAAGGYSWSAGCEFNYWGQGTQVTVSSASHHHHHH next?
Out: low interval

In: Let us now turn to DR392(DR229-DR236) (bispecific antibody, Anti-hIL10Ra/hIL2Rg dual VHH with ASH6 handle; also called A7) QVQLQESGGGLVQPGGSLRLSCTASGFSFSSYPMTWARQAPGKGLEWVSTIASDGGSTAYAASVEGRFTISRDNAKSTLYLQLNSLKTEDTAMYYCTKGYGDGTPAPGQGTQVTVSSGGGSQVQLQESGGGSVQAGGSLRLSCAASRFTYSSYCMGWFRQAPGKEREGVASIDSDGSTSYTDSVKGRFTISKDNAKNTLYLQMNSLKPEDTAMYYCALDLMSTVVPGFCGFLLSAGMDYWGKGTQVTVSSASHHHHHH
Out: high interval
